Quick reference: survival of the listed items.
Test system: Wild type
Test summary: S. aureus survival, RN4220 and DeltatarO strains – OD600, teichoic acid synthesis inhibitors, primary screen (AID 463173)
Protocol conditions: S. aureus RN4220 wild type/DeltatarO growth, OD600, 18 h, hits give low values, screened at 18.75 µg/mL (by protocol)
About 1,700 (3.3%) of roughly 52,000 compounds were called active. Many of the other results were omitted from the sample, so actives are more common in it than they were.
Observed property: survival (%)

molecule="CCOc1ccc(C(=O)/C=C/c2cn(CC(O)CN3CCc4ccccc43)c3ccccc23)cc1 (stereo not given)" observed_property=survival numeric_value=69
molecule="CCCCN(C)CC(O)Cn1cc(/C=C/C(=O)c2ccc(C)cc2)c2ccccc21 (stereo not given)" observed_property=survival numeric_value=15
molecule=CCOC(=O)/C(C#N)=C/c1ccc(-c2ccccc2)o1 observed_property=survival numeric_value=81
molecule=Cn1nc(C(=O)N2CCN(c3cccc(Cl)c3)CC2)c2c1-c1ccccc1S(=O)(=O)C2 observed_property=survival numeric_value=46
molecule=CCOC(=O)c1c(C)[nH]c(C)c1S(=O)(=O)N1CCC(C(=O)NCc2ccc(C)cc2)CC1 observed_property=survival numeric_value=71
molecule=O=C(CN1C2=NCCN2c2ccccc21)C12CC3CC(CC(C3)C1)C2 observed_property=survival numeric_value=98
molecule=Cn1c(SCC(=O)c2ccc(F)cc2)nnc1-c1ccccc1Br observed_property=survival numeric_value=74
molecule=COc1cccc(N2CCN(S(=O)(=O)c3ccc(-c4ccno4)cc3OC)CC2)c1 observed_property=survival numeric_value=57
molecule="Cc1ccc(C(=O)/C=C/c2cn(CC(O)CN3CCc4ccccc43)c3ccccc23)cc1 (stereo not given)" observed_property=survival numeric_value=76
molecule=CCOc1cccc2cc(-c3cn4c(n3)sc3ccccc34)c(=O)oc12 observed_property=survival numeric_value=64

###

Test system: Wild type
Test summary: S. aureus survival, RN4220 and DeltatarO strains – OD600, teichoic acid synthesis inhibitors, primary screen (AID 463173)
Protocol conditions: S. aureus RN4220 wild type/DeltatarO growth, OD600, 18 h, screened at 18.75 µg/mL (by protocol)
The whole screen tested about 52,000 compounds, of which about 1,700 (3.3%) were called active. Rule as the data show it: active = survival mostly below about 52% (no sharp cut-off); inactive = mostly above about 56%. For the sample, actives were picked, then their nearest neighbours and some compounds at random.
Outcome codes: label 1 = active, label 0 = inactive

compound=CCCN1CCN(CCCNC(=O)c2cc3c(=O)n(CC)c4ccccc4c3s2)CC1 class_label="label 0"
compound=CCc1ccc(NC(=O)N(Cc2c[nH]c3ccccc23)C2CCCCC2)cc1 class_label="label 0"
compound="CC1CCCN(S(=O)(=O)c2ccc(N)cc2)C1 (configuration not stated)" class_label="label 0"
compound=CSc1ccc(CNC(=O)c2ccccc2NC(=O)c2nsc3ccccc23)cc1 class_label="label 0"
compound=COC(=O)c1sccc1S(=O)(=O)N(CC(=O)Nc1ccc(C)c(F)c1)c1ccc(C)c(C)c1 class_label="label 1"
compound="CC1CN(C(=O)CCC(=O)NCc2ccccc2)c2cc(Cl)ccc2O1 (configuration not stated)" class_label="label 0"
compound=Cc1cccc(NC(=O)c2ccccc2)n1 class_label="label 0"
compound=CCOc1ccccc1NC(=O)CSc1c(C)cnc2c1c(=O)n(C)c(=O)n2C class_label="label 0"
compound=CCc1cccc(NC(=O)CN(c2ccc(C)c(C)c2)S(=O)(=O)c2ccsc2C(=O)OC)c1 class_label="label 1"
compound="CC(C)(C)n1nnnc1C(c1ccc2ncccc2c1)N1CCc2ccccc21 (configuration not stated)" class_label="label 0"
compound=O=C(NC1CCCC1)c1ccc2c(=O)n(Cc3ccccc3)c(SCc3ccccc3)nc2c1 class_label="label 0"
compound=CCNC(=O)c1ccc(CSc2nc3cccnc3n2Cc2ccc(OC)cc2)cc1 class_label="label 1"
compound="O=C(CCC1N=C2c3ccccc3N=C(SCc3ccccc3Cl)N2C1=O)N1CCN(c2ccccc2)CC1 (configuration not stated)" class_label="label 0"
compound="CCOC(=O)c1c(NC(=O)CCCOc2ccc(C)cc2)sc2c1CCC(C)C2 (configuration not stated)" class_label="label 1"
compound=Cc1c(CNC2CCCCCC2)c(C(=O)O)c(C)n1Cc1ccc(F)cc1 class_label="label 0"
compound=COCCNC(=O)c1sc2ncccc2c1-n1c(C)ccc1C class_label="label 0"
compound=CCOc1ccccc1CNC(=O)c1ccc(Cn2c(SCc3ccccc3)nc3cccnc32)cc1 class_label="label 0"
